System: A549 (lung cancer cell line)
method summary: Cell proliferation (ATPLite) on A549 line
Assay type: cell-based
condition details: Homo sapiens, A549, 50% inhibition of cell proliferation, read 72 hours after addition
value kind: IC50 (µM)

Solved entries (count: 3):
{"compound": "COC(=O)C1=C[C@H](c2ccccc2)C2=C(C[C@@H](C)[C@]3(Oc4c(Cl)c(OC)cc(OC)c4C3=O)C2=O)N1", "IC50 / µM": 0.24}
{"compound": "COc1cc(OC)c2c(c1Cl)O[C@]1(C2=O)C(O)c2ccc(C)nc2C[C@H]1C (stereo partly drawn)", "IC50 / µM": 0.55}
{"compound": "COC(=O)c1cc(-c2ccc(F)cc2)c2c(n1)C[C@@H](C)[C@]1(Oc3c(Cl)c(OC)cc(OC)c3C1=O)C2=O", "IC50 / µM": 0.45}

P. COC(=O)c1cc(-c2ccccc2)c2c(n1)C[C@@H](C)[C@]1(Oc3c(Cl)c(OC)cc(OC)c3C1=O)C2=O
Q. CCc1ccc2c(n1)C[C@@H](C)[C@]1(Oc3c(Cl)c(OC)cc(OC)c3C1=O)C2O (stereo partly drawn)
R. COC(=O)c1cc(-c2ccccc2)c2c(n1)C[C@@H](C)[C@]1(Oc3c(Cl)c(OC)cc(OC)c3C1=O)[C@H]2O
Challenge: Ordering: ascending IC50. Would you mind listing the labels in the order requested?
Response given: R, P, Q

The measured values listed here are drawn from patent US9416143B2.
